# activity change, negative = inhibition values compiled below
Test: T. gondii growth inhibition with IFN-gamma, primary screen, cell-based (AID 1259416);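 also: host cells are HeLa cells infected with Toxoplasma gondii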
Settings: Toxoplasma gondii growth in IFN-gamma-treated host cells; active compounds read low; concentration not given here
The whole screen tested about 69,000 compounds, of which about 2,600 (3.8%) were called active. This is one part of a sample in which actives are shown more often than they occur.
State just the number; it will be interpreted in %.

Reference set, count: 4
>>> experimental_value("Nc1cc(N2C[C@H]3CC=CC[C@H]3C2)nc(N2CCOCC2)n1")
14.9
>>> experimental_value("COCCN1CC2(CCOCC2)c2cc(NC(=O)C3CCC3)ccc21")
-48.6
>>> experimental_value("O=C(Nc1cccc(N2CCCCS2(=O)=O)c1)c1ccc(-n2cccn2)nc1")
6.32
>>> experimental_value("CC(C)NC(=O)N1CC2(C1)[C@H](c1ccccc1)[C@H](CO)N2C(=O)C1CCOCC1")
-2.06

QUERY: Entry under review: CC(C)(C)c1ccc(Oc2ccc(NC(=O)Cc3cccs3)cn2)cc1 . Reported activity change, negative = inhibition?
RESULT: -76.9

QUERY: Entry under review: COc1ccc(-c2noc(-c3c(O)c4ccccc4n(C)c3=O)n2)cc1F . Reported activity change, negative = inhibition?
RESULT: 31.1

QUERY: Entry under review: N#Cc1cccc(-c2ccc3c(c2)[C@H]2[C@H](CCN2S(=O)(=O)c2ccc(F)cc2)[C@@H](CO)N3)c1 . Reported activity change, negative = inhibition?
RESULT: -42.4

QUERY: Entry under review: Cc1ccc(CC(=O)c2cccnc2)cc1 . Reported activity change, negative = inhibition?
RESULT: 14

QUERY: Entry under review: Cc1ccc(Nc2nc(C(=O)Nc3ccc(Cl)cc3F)nc3ccccc23)cc1 . Reported activity change, negative = inhibition?
RESULT: 4.67

QUERY: Entry under review: CCc1ccccc1NC(=O)c1nnn(Cc2nc(-c3ccccc3C)oc2C)c1C . Reported activity change, negative = inhibition?
RESULT: -107

QUERY: Entry under review: Cc1ccc(-c2nc(Cn3nnc(C(=O)NCc4ccccn4)c3C)c(C)o2)cc1 . Reported activity change, negative = inhibition?
RESULT: -57.8

QUERY: Entry under review: O=C(Nc1ccccc1Br)c1nc(Nc2ccccc2)c2ccccc2n1 . Reported activity change, negative = inhibition?
RESULT: -74.2

* * *

Assay: T. gondii growth inhibition with IFN-gamma, primary screen, cell-based (AID 1259416);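 also: host cells are HeLa cells infected with Toxoplasma gondii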
Settings: Toxoplasma gondii growth in IFN-gamma-treated host cells; active compounds read low; concentration not given here
Out of some 69,000 compounds screened, about 2,600 (3.8%) were called active. What follows is part of a selection rich in actives, with near analogues and random picks from the rest.
MEASURED PROPERTY: activity change, negative = inhibition (%)
State just the number; it will be interpreted in %.

>>> experimental_value("COc1cc(CN(C)Cc2ncccc2C)cc(OC)c1")
-4.74

QUERY: Entry under review: Cc1cc(C)c2c(-n3cccc3)c(C(=O)c3ccc(Cl)cc3)sc2n1 . Reported activity change, negative = inhibition?
RESULT: -91.8

QUERY: Entry under review: O=C(Nc1ccccc1Oc1ccc(F)cc1)C1CC(=O)N(Cc2cccnc2)C1 (stereo unspecified) . Reported activity change, negative = inhibition?
RESULT: 18.8

QUERY: Entry under review: Cc1nn(CC(C)C)c2c1C(c1cnn3cccnc13)CC(=O)N2 (stereo unspecified) . Reported activity change, negative = inhibition?
RESULT: -4.06

QUERY: Entry under review: COc1ccc(OC)c(NC(=O)Cn2c(=O)cc(C(=O)N3CCCCC3)c3ccccc32)c1 . Reported activity change, negative = inhibition?
RESULT: 5.37

QUERY: Entry under review: CC1CCCN(C(=O)CCNc2c(-c3ccc(F)cc3)nc3cnccn23)C1 (stereo unspecified) . Reported activity change, negative = inhibition?
RESULT: 229

* * *

Experiment: T. gondii growth inhibition with IFN-gamma, primary screen, cell-based (AID 1259416);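 also: host cells are HeLa cells infected with Toxoplasma gondii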
Conditions: Toxoplasma gondii growth in IFN-gamma-treated host cells; active compounds read low; concentration not given here
In all, about 69,000 compounds went through this assay and about 2,600 (3.8%) were called active. For the sample, actives were picked, then their nearest neighbours and some compounds at random.
MEASURED PROPERTY: activity change, negative = inhibition (%)
State just the number; it will be interpreted in %.

Reference set, count: 2
>>> experimental_value("CN1C2CCN(Cc3nccs3)CC2C[C@H]1Cn1cncn1 (stereo partly drawn)")
4.21
>>> experimental_value("Cc1ccc(C(=O)Nc2ccc(-c3nc(-c4ccc(C)cc4)co3)cc2)cc1")
42.6

API: the following record is the query input.
QUERY: Entry under review: Cc1cc(C)cc(NC(=O)CN2C(=O)CCc3cc(S(=O)(=O)N4CCOCC4)ccc32)c1 . Reported activity change, negative = inhibition?
RESULT: 24.4

* * *

# activity change, negative = inhibition values compiled below
Test: T. gondii growth inhibition with IFN-gamma, primary screen, cell-based (AID 1259416);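 also: host cells are HeLa cells infected with Toxoplasma gondii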
Details: Toxoplasma gondii growth in IFN-gamma-treated host cells; active compounds read low; concentration not given here
Among all 69,000 compounds or so, about 2,600 (3.8%) were called active. What follows is part of a selection rich in actives, with near analogues and random picks from the rest.
State just the number; it will be interpreted in %.

>>> experimental_value("O=C(Nc1cccnc1)c1cc2c(s1)-c1ccccc1CC2")
-101
>>> experimental_value("Cc1cc(-c2cccc(O)c2)nc(-c2ccccc2O)n1")
-20
>>> experimental_value("Cc1cc(C)nc(N2CCN(c3c4c(nc5c(-c6ccccc6)c(C)nn35)CCC4)CC2)n1")
-75.6

API: the following record is the query input.
QUERY: Entry under review: CCc1ccc(-n2cc3c(=O)n(C)c(=O)n(C)c3c2)cc1 . Reported activity change, negative = inhibition?
RESULT: -61.6

* * *

# activity change, negative = inhibition values compiled below
Assay: T. gondii growth inhibition with IFN-gamma, primary screen, cell-based (AID 1259416);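 also: host cells are HeLa cells infected with Toxoplasma gondii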
Conditions: Toxoplasma gondii growth in IFN-gamma-treated host cells; active compounds read low; concentration not given here
Out of some 69,000 compounds screened, about 2,600 (3.8%) were called active. The sample holds actives, similar compounds and a random draw of the others, so the mix is not that of the screen.

>>> experimental_value("O=C(CCn1nnc2ccccc21)N1CCCC(c2ccn[nH]2)C1 (stereo not drawn)")
"2.46% (inactive)"
>>> experimental_value("Cc1nc2cc(C(=O)NC3(c4ccc5c(c4)OCO5)CCCC3)ccc2s1")
"-5.47% (inactive)"

QUERY: Entry under review: Cc1cc(-c2cc(C3CCN(C(=O)C4CC(=O)C4)C3)ccn2)ccc1F (stereo not drawn) . Reported activity change, negative = inhibition?
RESULT: 14.5% (inactive)

* * *

Assay: T. gondii growth inhibition with IFN-gamma, primary screen, cell-based (AID 1259416);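 also: host cells are HeLa cells infected with Toxoplasma gondii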
Details: Toxoplasma gondii growth in IFN-gamma-treated host cells; active compounds read low; concentration not given here
Among all 69,000 compounds or so, about 2,600 (3.8%) were called active. What follows is part of a selection rich in actives, with near analogues and random picks from the rest.
MEASURED PROPERTY: activity change, negative = inhibition (%)
State just the number; it will be interpreted in %.

Reference set, count: 3
>>> experimental_value("Cc1ccsc1-c1cn(CC2(Cn3ccnc3C)CC2)nn1")
8.54
>>> experimental_value("CCOc1cccc(CC(=O)N2CCc3c([nH]c4ccccc34)C2c2ccc(OC)cc2)c1OCC (stereo unspecified)")
213
>>> experimental_value("Cc1nn(-c2ccccc2)c(C)c1CCC(=O)Nc1nc(C(C)C)cs1")
-0.863

QUERY: Entry under review: Cc1cccc(C2c3[nH]c4ccccc4c3CCN2C(=O)C(=O)CCc2ccccc2)n1 (stereo unspecified) . Reported activity change, negative = inhibition?
RESULT: -13.8

QUERY: Entry under review: Cc1ccc(S(=O)(=O)Nc2ccc3c(c2)C(=O)N([C@H](C)CO)C[C@@H](C)[C@H](CN(C)S(=O)(=O)c2cccs2)OCCCC[C@@H](C)O3)cc1 . Reported activity change, negative = inhibition?
RESULT: -131

QUERY: Entry under review: COc1cccc(-c2nc3c(s2)CN(C(=O)Nc2ccc(C)c(F)c2)CC3)c1 . Reported activity change, negative = inhibition?
RESULT: -89.9

* * *

Experiment: T. gondii growth inhibition with IFN-gamma, primary screen, cell-based (AID 1259416);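 also: host cells are HeLa cells infected with Toxoplasma gondii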
Details: Toxoplasma gondii growth in IFN-gamma-treated host cells; active compounds read low; concentration not given here
Among all 69,000 compounds or so, about 2,600 (3.8%) were called active. The sample as a whole holds a higher share of actives than the screen did.
Lab note: cut-off is -30%. Strictly less in activity change, negative = inhibition is Criterion met. Exactly -30% or more is Criterion not met.

Example entries begin here.
>>> assigned_category("O=C(CCCn1cnnn1)N1CCc2onc(-c3cccc(F)c3)c2C1")
"Criterion not met"
>>> assigned_category("CCCNS(=O)(=O)c1ccc(CCC(=O)N2CCCC2)cc1")
"Criterion not met"
>>> assigned_category("Cc1ccc(-c2ccccc2[C@H]2[C@@H](C#N)N(c3ncc(-c4ccccc4)s3)[C@@H]2CO)cc1")
"Criterion met"
>>> assigned_category("Cc1ncc(CN2CCC(Oc3cccc(C(=O)NCc4ccccc4)c3)CC2)s1")
"Criterion not met"

Next item in the queue.
QUERY: I'd appreciate it if you could check whether CC1CCCCC12NC(=O)N(CC(=O)N1CCN(Cc3ccccn3)CC1)C2=O (stereo unspecified) has activity change, negative = inhibition smaller than -30%.
RESULT: Criterion not met
